# Tested Target: HCV polymerase (NS5B) type 1a (Hepatitis C virus genotype 1a)
# Construct: made in house; host or cells: Escherichia coli (by the 'similar method' of the 1b enzyme)
# Assay Method Text: Assay of enzyme (HCV polymerase) inhibitory activity, type 1a enzyme
# Type: biochemical, HCV type 1a (cloned from the blood of patients)
# Protocol Conditions: HCV polymerase inhibitory activity (IC50), 1a, type 1a enzyme 1.5 μg/ml, 25° C., 60 min
# Method: The evaluation of the HCV polymerase inhibitory activity of the compound of the present invention is explained in the following. This polymerase is an enzyme coded for by the non-structural protein region called NS5B on the genome RNA of HCV. i) Preparation of Enzyme (HCV Polymerase) […] The HCV polymerase inhibitory activity (IC50) of the compound of the present invention was calculated from the values of radioactivity of the enzyme reaction with and without the test substance. […]
Reported values of IC50 for individual entries

Worked cases, answers included:
Request - read-out IC50 | tested on HCV polymerase (NS5B) type 1a (Hepatitis C virus genotype 1a) | compound CCCc1ccc(CNC(=O)[C@H]2CN(c3cc(C)c(C(=O)O)nn3)CCN2S(=O)(=O)c2ccc(OC(F)(F)F)cc2)cc1
< 100 nM

Note, next up: CN(C)c1ccc(CNC(=O)[C@H]2CN(C(=O)CN3CCCC3)CCN2S(=O)(=O)c2ccc(I)cc2)cc1
> 1000 nM

Then CC(=O)N1CCN(S(=O)(=O)c2ccc(OC(F)(F)F)cc2)[C@@H](C(=O)NCc2ccc(C(C)(C)C)cc2)C1 ?
< 100 nM

Shifting focus to the compound that follows.
Kindly state the measured IC50 obtained for CC(C)c1ccc(CNC(=O)[C@H]2CN(C(N)=S)CCN2S(=O)(=O)c2ccc(C(F)(F)F)cc2)cc1 with HCV polymerase (NS5B) type 1a (Hepatitis C virus genotype 1a).
100 to 1000 nM

---

# pIC50 per record follows
# Tested Target: HCV polymerase (NS5B) type 1a (Hepatitis C virus genotype 1a)
# Construct: made in house; host or cells: Escherichia coli (by the 'similar method' of the 1b enzyme)
# Assay Method Text: Assay of enzyme (HCV polymerase) inhibitory activity, type 1a enzyme
# Assay type: biochemical, HCV type 1a (cloned from the blood of patients)
# Protocol Conditions: HCV polymerase inhibitory activity IC50, 1a, type 1a enzyme
pIC50: −log10 of the molar value.

Worked cases, pIC50 given:
Requested field: pIC50. Item: O=C(NCc1ccc(OC(F)(F)F)cc1)[C@H]1CN(c2nc3nc(C4CC4)ncc3s2)CCN1S(=O)(=O)c1ccc(OC(F)(F)F)cc1F [Example 1110]
> 7.00

Next entry: Cc1nc(N2CCN(S(=O)(=O)c3ccc(OC(F)(F)F)cc3)[C@@H](C(=O)NCc3ccc(OC(F)(F)F)cc3)C2)cnc1C(=O)O [Example 809]
> 7.00

Next:
Report pIC50 for O=C(NCc1ccc(OC(F)F)c(F)c1)[C@H]1CN(c2nc3nc(C4CC4)[nH]c(=O)c3s2)CCN1S(=O)(=O)c1ccc(C(F)(F)F)cc1 [Example 1114] please.
> 7.00

---

# Tested Target: HCV polymerase (NS5B) type 1a (Hepatitis C virus genotype 1a)
# Construct: made in house; host or cells: Escherichia coli (by the 'similar method' of the 1b enzyme)
# Assay Method Text: Assay of enzyme (HCV polymerase) inhibitory activity, type 1a enzyme
# Type: biochemical, HCV type 1a (cloned from the blood of patients)
# Protocol Conditions: HCV polymerase inhibitory activity IC50, 1a, type 1a enzyme
pIC50: −log10 of the molar value.
Measured Endpoint: pIC50

I would be grateful if you could share the reported pIC50 for O=C(NCc1ccc(OC(F)(F)F)cc1)[C@H]1CN(c2nc3nc(C(F)(F)F)ncc3s2)CCN1S(=O)(=O)c1ccc(C2CC2)cc1 [Example 1100] .
> 7.00

New cases:
Name the reported pIC50 value associated with the compound O=C(NCc1ccc(OC(F)(F)F)cc1)[C@H]1CN(c2nc3ncncc3s2)CCN1S(=O)(=O)c1ccc(OC(F)(F)F)cc1 [Example 801]
> 7.00

Entry O=C(NCc1ccc(OC(F)F)cc1)[C@H]1CN(c2nc3nc(C(F)(F)F)ncc3s2)CCN1S(=O)(=O)c1ccc(OC(F)(F)F)cc1 [Example 1000] please
> 7.00

---

# Tested Target: HCV polymerase (NS5B) type 1a (Hepatitis C virus genotype 1a, UniProt P26664)
# Construct: made in house; host or cells: Escherichia coli (by the 'similar method' of the 1b enzyme)
# Assay Method Text: Assay of enzyme (HCV polymerase) inhibitory activity, type 1a enzyme
# Type: biochemical, HCV type 1a (cloned from the blood of patients)
# Protocol Conditions: HCV polymerase inhibitory activity (IC50), 1a, type 1a enzyme 1.5 μg/ml, 25° C., 60 min
pIC50: −log10 of the molar value.
Below: a set of entries, each annotated with reported pIC50.

Value wanted: pIC50 (HCV polymerase (NS5B) type 1a (Hepatitis C virus genotype 1a, UniProt P26664)) of entry CC(=O)N1CCN(S(=O)(=O)c2ccc(S(=O)(=O)c3ccccc3)s2)C(C(=O)NCc2ccc(C(F)(F)F)cc2)C1 (centres unmarked)
< 6.00

Entry CC(=O)N1CCN(S(=O)(=O)c2ccc(C3CC3)cc2)[C@@H](C(=O)NCc2ccc(C(C)C)cc2)C1 please
> 7.00

Same question for CCCc1ccc(S(=O)(=O)N2CCN(c3nc(C(=O)OCC)cs3)C[C@@H]2C(=O)NCc2ccc(C(C)C)cc2)cc1 please.
> 7.00

Similarly, CCCN(CCC)CC(=O)N1CCN(S(=O)(=O)c2ccc(I)cc2)C(C(=O)NCc2ccc(N(C)C)cc2)C1 (centres unmarked) ?
< 6.00

Okay, and CC(C)c1ccc(CNC(=O)[C@H]2CN(C(=O)CNC(=O)CCC(=O)O)CCN2S(=O)(=O)c2ccc(C(F)(F)F)cc2)cc1 ?
< 6.00

How about CC(=O)N1CCN(S(=O)(=O)c2ccc(C(C)C)s2)C(C(=O)NCc2ccc(C(F)(F)F)cc2)C1 (centres unmarked) ?
< 6.00

Also check Cc1nc(N2CCN(S(=O)(=O)c3ccc(C(F)(F)F)cc3)[C@@H](C(=O)NCc3ccc(C(C)C)cc3)C2)sc1C(=O)NS(C)(=O)=O
6.00 to 7.00

Request: COc1ccc(CNC(=O)C2CN(C(C)=O)CCN2S(=O)(=O)c2ccc(C(C)C)cc2)cc1 (centres unmarked)
< 6.00

New cases:
Give the reported pIC50 for CCC(F)(F)c1ccc(CNC(=O)[C@H]2CN(c3cnc4cnccc4n3)CCN2S(=O)(=O)c2ccc(OC(F)(F)F)cc2)cc1 (system: HCV polymerase (NS5B) type 1a (Hepatitis C virus genotype 1a, UniProt P26664)).
> 7.00

---

# Tested Target: HCV polymerase (NS5B) type 1a (Hepatitis C virus genotype 1a, UniProt P26664)
# Construct: made in house; host or cells: Escherichia coli (by the 'similar method' of the 1b enzyme)
# Assay Method Text: Assay of enzyme (HCV polymerase) inhibitory activity, type 1a enzyme
# Type: biochemical, HCV type 1a (cloned from the blood of patients)
# Protocol Conditions: HCV polymerase inhibitory activity (IC50), 1a, type 1a enzyme 1.5 μg/ml, 25° C., 60 min
Measured Endpoint: IC50

Recorded results for 4 compounds are shown here.
Could you share what IC50 was measured for O=C(NCc1ccc(-c2cccs2)cc1)[C@H]1CN(c2cnc3cncnc3n2)CCN1S(=O)(=O)c1ccc(OC(F)(F)F)cc1 [Example 652] , tested on HCV polymerase (NS5B) type 1a (Hepatitis C virus genotype 1a, UniProt P26664)?
< 100 nM

What do you have for CCOC(=O)c1cnc(N2CCN(S(=O)(=O)c3ccc(C(F)(F)F)cc3)[C@@H](C(=O)NCc3ccc(C(C)C)cc3)C2)nc1O [Example 325] ?
> 1000 nM

Query CC(=O)N1CCN(S(=O)(=O)c2ccc(C(C)C)cc2)C(C(=O)NCc2ccc(-c3cccc(Cl)c3)cc2)C1 (stereo not drawn) [Example 141] next
> 1000 nM

Request: CC(C)c1ccc(CNC(=O)[C@H]2CN(CC(N)=O)CCN2S(=O)(=O)c2ccc(C(F)(F)F)cc2)cc1 [Example 146]
> 1000 nM

New cases:
Identify the measured IC50 of CN(C)c1ccc(CNC(=O)C2CN(C(=O)CCNC(=O)OC(C)(C)C)CCN2S(=O)(=O)c2ccc(I)cc2)cc1 (stereo not drawn) [Example 87] for HCV polymerase (NS5B) type 1a (Hepatitis C virus genotype 1a, UniProt P26664).
> 1000 nM

What do we get for CC(C)c1ccc(CNC(=O)[C@H]2CN(c3nccn3C)CCN2S(=O)(=O)c2ccc(C(F)(F)F)cc2)cc1 [Example 352] ?
> 1000 nM

Note, next up: CCCc1ccc(CNC(=O)[C@H]2CN(c3nc(C(=O)O)c(CO)s3)CCN2S(=O)(=O)c2ccc(OC(F)(F)F)cc2)cc1 [Example 537]
< 100 nM

Proceed to CC(C)c1ccc(CNC(=O)[C@H]2CN(C3CCNC3=O)CCN2S(=O)(=O)c2ccc(C(F)(F)F)cc2)cc1 (stereo partly drawn) [Example 345]
> 1000 nM

How about CC(C)c1ccc(CNC(=O)[C@H]2CN(c3cnn(CC(=O)O)c3)CCN2S(=O)(=O)c2ccc(OC(F)(F)F)cc2)cc1 [Example 493] ?
100 to 1000 nM
